Provenance of the data: PubChem BioAssay (NCI)

Reported TGI values follow for various molecules
test system: K-562 leukemia; assay: NCI tumour cell line growth inhibition, 48 h
Observed Property: TGI

{"columns": ["Molecule", "Recorded Measurement"],
 "data": [
  ["CC(O)(CNS(=O)(=O)c1ccccc1)c1ccccc1 (stereo unspecified)", "> 100 µM"],
  ["CO[C@@]12C[C@H]3[C@@H]([C@@H](O)[C@@H](OC(=O)/C=C/c4ccccc4)[C@@]4(O)C(C)(C)CCC[C@]34C)[C@@H](C)C1=CC(=O)O2", "> 100 µM"],
  ["COC(=O)C[C@H](COCc1ccccc1)NC(=O)C[C@H](COCc1ccccc1)NC(=O)OC(C)(C)C", "> 100 µM"],
  ["CCOC(=O)C(=O)NCCCN1CCOCC1", "> 100 µM"],
  ["CC(=O)OC1CCC2(C)C(=CCC3C4CCC5(OC6CC(C)CN(C(C)=O)C6C5C)C(C)=C4C(=O)C32)C1 (stereo unspecified)", "52.7 µM"],
  ["CC(=O)/C=C/C1=C(c2cccs2)c2ccccc2CC1", "> 100 µM"]
]}

====

tested on: NCI-H23 lung; assay: NCI tumour cell line growth inhibition, 48 h
Reported TGI values follow for various compounds

{"columns": ["Substance Smiles", "TGI"],
 "data": [
  ["C(=C\\c1nccc2c1[nH]c1ccccc12)/c1ccccc1", "> 100 µM"],
  ["O=[N+]([O-])[O-].O=[N+]([O-])[O-].[Au].[Au].c1ccc([P-]c2ccccc2)cc1.c1ccc([P-]c2ccccc2)cc1", "> 100 µM"],
  ["COc1ccc(/C=C/C(=O)c2cc3c(N)c(C(=O)Nc4ccccc4C)sc3nc2C)cc1", "> 50 µM"],
  ["CC(C)(Oc1ccc2c(=O)cc(-c3ccccc3)oc2c1)C(=O)Nc1c(Cl)cccc1Cl", "> 100 µM"]
]}

====

test system: NCI/ADR-RES ovarian; assay: NCI tumour cell line growth inhibition, 48 h
Observed Property: TGI

{"columns": ["Compound", "System Under Test", "Recorded Measurement"],
 "data": [
  ["O=C(Nc1ccc(Cl)cc1)c1cc(S(=O)(=O)Nc2nnc(-c3ccccc3)c(-c3ccccc3)n2)c(SCc2ccccc2)cc1Cl", "NCI/ADR-RES ovarian", "> 80.2 µM"],
  ["COc1cc2c(c(OC)c1OC)C(=O)[C@H](Br)[C@H]2NC(=O)NCCCl", "NCI/ADR-RES ovarian", "> 100 µM"],
  ["COc1cc2cc(Oc3ccc(NC(=O)Nc4ccc(Cl)c(C(F)(F)F)c4)cc3)c(C)nc2cc1OC", "NCI/ADR-RES ovarian", "4.91 µM"],
  ["Clc1ccc(C=NC23CC4CC(CC(C4)C2)C3)cc1Cl", "NCI/ADR-RES ovarian", "> 10 µM"],
  ["CC(O)C(O)C(O)C(/C=N\\Nc1ccccc1)=N/Nc1ccccc1 (centres undefined)", "NCI/ADR-RES ovarian", "40.2 µM"],
  ["CC(C)(C)[Si](C)(C)OCC1C=CC(n2cnc3c(N)ncnc32)O1 (centres undefined)", "NCI/ADR-RES ovarian", "> 100 µM"],
  ["Nc1cc(N2CCOCC2)nc(=O)n1-c1ccc(Cl)cc1", "NCI/ADR-RES ovarian", "> 100 µM"],
  ["CCCN1C(=O)CSC1=Nc1ccc2cc3ccc(N=C4SCC(=O)N4CCC)cc3nc2c1", "NCI/ADR-RES ovarian", "> 100 µM"],
  ["CC(C)C1OC(=O)/C=C/C=C/C=C/C=C/C=C/CC(O)C(C)C(O)CC(O)CC(O)CC(O)CC(O)CC(O)CC(O)/C=C/C1C (centres undefined)", "NCI/ADR-RES ovarian", "> 100 µM"],
  ["C[C@H](CCC(=O)O)[C@H]1CC[C@H]2[C@@H]3[C@H](O)C[C@@H]4C[C@H](O)CC[C@]4(C)[C@H]3CC[C@]12C", "NCI/ADR-RES ovarian", "> 100 µM"],
  ["Cn1c2ccccc2n2c3ccccc3c(=O)c(C#N)c12", "NCI/ADR-RES ovarian", "> 60.1 µM"],
  ["O=C1CC2(CCC(O)(c3cccs3)C(C(=O)c3cccs3)C2)C(=O)c2ccccc2N1 (centres undefined)", "NCI/ADR-RES ovarian", "> 100 µM"],
  ["O=C1CCCCC(=O)Nc2ccccc2N1", "NCI/ADR-RES ovarian", "> 100 µM"],
  ["Cn1c(=O)cc(NCCc2ccccc2)[nH]c1=O", "NCI/ADR-RES ovarian", "98 µM"],
  ["CC(=O)OC1CC[C@@]2(C)C(C1)CC(OC(C)=O)[C@@H]1C2CC(OC(C)=O)[C@]2(C)C(C(C)CC=C(c3ccc(Cl)cc3)c3ccc(Cl)cc3)CCC12 (some centres undefined)", "NCI/ADR-RES ovarian", "> 100 µM"],
  ["CC1(C)CC(=O)c2c(nc(SSc3nc4c(c(-c5ccc(Br)cc5)c3C#N)C(=O)CC(C)(C)C4)c(C#N)c2-c2ccc(Br)cc2)C1", "NCI/ADR-RES ovarian", "> 10 µM"],
  ["CC(C)(C)[Si](C)(C)OCC1OC(n2cnc3c(N)ncnc32)CC1OS(C)(=O)=O (centres undefined)", "NCI/ADR-RES ovarian", "> 100 µM"],
  ["COc1ccc(-c2nnc(N3CCN(C(=O)CN4CCN(c5ccc(Cl)cc5)CC4)CC3)nc2-c2ccc(OC)cc2)cc1", "NCI/ADR-RES ovarian", "> 100 µM"],
  ["CC(=O)c1sc(Nc2ccc(Cl)c(Cl)c2)nc1C", "NCI/ADR-RES ovarian", "> 100 µM"],
  ["COC(=O)C1(C2CC/C(C)=C/CC/C(C)=C/CC[C@@]3(C)O[C@@H]3C2)CC1 (some centres undefined)", "NCI/ADR-RES ovarian", "> 100 µM"],
  ["O=C(NNS(=O)(=O)c1ccc(F)cc1)c1cccnc1Nc1ccc(Cl)cc1Cl", "NCI/ADR-RES ovarian", "> 100 µM"],
  ["CC(C)(C)OC(=O)CN1CCc2c(sc3ncnc(N/N=C/c4cccc5ccccc45)c23)C1", "NCI/ADR-RES ovarian", "14.5 µM"],
  ["CO[C@@]12C[C@H]3[C@@H]([C@@H](O)[C@@H](OC(=O)/C=C/c4ccccc4)[C@@]4(O)C(C)(C)CCC[C@]34C)[C@@H](C)C1=CC(=O)O2", "NCI/ADR-RES ovarian", "> 100 µM"],
  ["CCOC(=O)CCC(NC(=O)c1ccc(Nc2cnc3ccc(C(F)(F)F)cc3n2)cc1)C(=O)OCC (centres undefined)", "NCI/ADR-RES ovarian", "52.7 µM"],
  ["CC(=O)c1cc2c(c3ccsc13)-c1ccccc1CC2", "NCI/ADR-RES ovarian", "44.8 µM"],
  ["CC(=O)N/N=C1/CC[C@@]2(C)C(=CC[C@H]3C4CCC(C(C)CCCC(C)C)[C@@]4(C)CCC32)C1(C)C (some centres undefined)", "NCI/ADR-RES ovarian", "> 100 µM"],
  ["C[C@@H]1OC(=O)C[C@H]2CC(=O)N(CCC3CN(S(=O)(=O)C(F)(F)F)c4ccccc43)C[C@@H]21 (some centres undefined)", "NCI/ADR-RES ovarian", "> 100 µM"],
  ["CC1(C)CCC[C@@]2(C)C1C(=O)[C@@H]1O[C@]1(C)[C@@H]2CO (some centres undefined)", "NCI/ADR-RES ovarian", "> 100 µM"],
  ["CCOC(=O)/C(C[C@H]1OC(C)(C)O[C@@H]1[C@H]1COC(C)(C)O1)=N/O", "NCI/ADR-RES ovarian", "> 100 µM"],
  ["COc1cc2c(cc1OCCCCCCCCN1C(=O)c3cccc4cccc(c34)C1=O)N=C[C@@H]1CCCN1C2=O", "NCI/ADR-RES ovarian", "19.4 µM"],
  ["Nc1ccc(-c2nc3cc(F)ccc3s2)cc1CO", "NCI/ADR-RES ovarian", "> 100 µM"],
  ["COc1ccc2c(c1)CCC1=C/C(=N\\NC(N)=O)CCC12C (centres undefined)", "NCI/ADR-RES ovarian", "> 10 µM"],
  ["CC(=O)c1ccc2c(c1)N(CCCN1CCN(CCO)CC1)c1ccccc1C2", "NCI/ADR-RES ovarian", "27.7 µM"],
  ["NC(=S)N1N=C(c2ccccc2O)CC1c1ccccc1 (centres undefined)", "NCI/ADR-RES ovarian", "50.6 µM"]
]}

====

system: UACC-62 melanoma; experiment: NCI tumour cell line growth inhibition, 48 h; in the data active = GI50 below about 0.43 µM; inactive = the rest
Outcome codes: active, inactive

{"columns": ["Substance Smiles", "Label"],
 "data": [
  ["O=[N+]([O-])[O-].O=[N+]([O-])[O-].[Au].[Au].c1ccc([P-]c2ccccc2)cc1.c1ccc([P-]c2ccccc2)cc1", "inactive"],
  ["OCC#Cc1ccccc1C#Cc1ccc(C#Cc2ccccc2C#CCO)s1", "inactive"],
  ["CCOC(=O)N[C@H]1CCc2c(Br)c(OC)c(OC)c(OC)c2-c2ccc(SC)c(=O)cc21", "active"]
]}
